# Measurement target: T1, FX activation peptide 12-mer AQATSSSGEAPD (human)
# T1 peptide: AQATSSSGEAPD-biotin
# Assay remarks: peptide ELISA
Ends that are not written are not given here.
Measure name: ELISA signal relative to background

{"Binder": "Nb 701D07 (VHH, monovalent Nanobody; not shown: C-terminal FLAG3 and HIS6 tag) VHH: EVQLVESGGGVVQPGGSLRLSCAASGGTLSRYAMGWFRQAPGKEREFVAAITRRGSRTYYADSVKGRFTISRDNSKNTVYLQMNSLRPEDTALYYCAADLAPGDYALDYWGQGTLVTVSS", "ELISA signal relative to background": 0.89}
{"Binder": "Nb 730C03 (VHH, monovalent Nanobody; also called Nb 730003; not shown: C-terminal FLAG3 and HIS6 tag) VHH: EVQLVESGGGVVQPGGSLRLSCVASGFTFSDYAMSWVRQAPGKGLEWVSGITSGSGRTYYADSVKGRFTISRDNSKNTVYLQMNSLRPEDTALYYCAAAILRGYRKTYDYWGQGTLVTVSS", "ELISA signal relative to background": 1.19}

Now examine the next entry.
According to the records, this binder Nb 701B09 (VHH, monovalent Nanobody; also called Nb 701609; not shown: C-terminal FLAG3 and HIS6 tag) VHH: EVQLVESGGGVVQPGGSLRLSCAASGRTFSTYAMGWFRQAPGKEREFVAAISWSGSRTYYADSVKGRFTISRDNSKNTVYLQMNSLRPEDTALYYCAADATPANGELDYWGQGTLVTVSS displays ELISA signal relative to background of 0.75

Taken from patent US20210054097A1.
